Just for reference, patent US20230203185A1 is where these values come from.

Target Desc: T1, pCD163-SRCR1-9-huFc (porcine, UniProt Q2VL90 47-1028, limits assumed)
T1 construct: also called pCD163:SRCR1-9-Fc; pCD163SRCR1-9-Fc; not shown: human Fc (huFc)
T1 sequence: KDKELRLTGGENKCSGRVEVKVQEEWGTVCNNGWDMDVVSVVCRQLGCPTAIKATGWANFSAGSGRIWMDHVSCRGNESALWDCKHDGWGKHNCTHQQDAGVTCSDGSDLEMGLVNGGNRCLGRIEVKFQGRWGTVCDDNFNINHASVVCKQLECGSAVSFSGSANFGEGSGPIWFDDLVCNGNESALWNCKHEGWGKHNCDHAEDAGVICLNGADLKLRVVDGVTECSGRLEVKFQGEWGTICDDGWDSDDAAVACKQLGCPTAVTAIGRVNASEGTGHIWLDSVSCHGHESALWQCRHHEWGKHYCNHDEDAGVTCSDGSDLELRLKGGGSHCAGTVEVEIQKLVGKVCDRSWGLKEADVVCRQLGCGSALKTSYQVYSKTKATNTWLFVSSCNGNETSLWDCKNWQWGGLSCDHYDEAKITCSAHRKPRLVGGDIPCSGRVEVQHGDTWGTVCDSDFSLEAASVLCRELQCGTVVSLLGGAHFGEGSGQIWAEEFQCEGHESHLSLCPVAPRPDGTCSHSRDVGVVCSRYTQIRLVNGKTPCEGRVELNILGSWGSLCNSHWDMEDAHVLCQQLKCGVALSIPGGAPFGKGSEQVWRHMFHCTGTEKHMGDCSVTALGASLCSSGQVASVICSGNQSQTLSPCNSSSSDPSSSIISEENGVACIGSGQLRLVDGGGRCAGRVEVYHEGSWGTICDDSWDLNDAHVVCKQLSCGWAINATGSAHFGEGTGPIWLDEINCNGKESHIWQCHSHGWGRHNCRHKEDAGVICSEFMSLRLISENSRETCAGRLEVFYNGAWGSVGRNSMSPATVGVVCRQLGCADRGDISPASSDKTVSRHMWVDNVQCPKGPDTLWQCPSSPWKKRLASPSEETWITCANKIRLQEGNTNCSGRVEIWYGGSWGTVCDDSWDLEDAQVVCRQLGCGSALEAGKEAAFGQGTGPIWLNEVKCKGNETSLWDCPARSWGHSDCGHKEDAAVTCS
Run Description: SPR (Biacore 3000), antigen amine-coupled on CM5, VHH injected, pH 7.4
Recorded Metric: Kd (nM)
Report only the number, with the unit nM understood.

Bench note: what Kd did VHH 015 (2G01) (VHH, Llama single domain antibody; also called 150(#15); VHCDR3 150(#15); not shown: tags: c-myc tag in periplasmic extract (ELISA, FACS); FLAG and His tags in purified VHH (SPR, infection assays)) VHH: QVQLVESGGGLVQAGDTLRLSCTASGRTFSSYSMGWFRQAPGKEREFVAAITWNGYITNYADSVKGRFTISRDNTKNTVFLQMNSLKPEETAVYYCAATTFSTTSPISRTYNYWGPGTQVTVSS show?
14.7

Bench note: what Kd did VHH 012 (2C07) (VHH, Llama single domain antibody; also called 41(#12); VHCDR3 41(#12); not shown: tags: c-myc tag in periplasmic extract (ELISA, FACS); FLAG and His tags in purified VHH (SPR, infection assays)) VHH: QLQLVESGGGLVQAGGSLRLSCVASGRTFSRYAMGWFRQAPGKEREFVAAIAWSTGSTYYANSVKGRFAISGDNAKNTVYLQMNSLKPEDTAVYYCAAETRYCSGFGCLDPRTYGSWGQGTQVTVSS show?
1.03

Bench note: what Kd did VHH 020 (3H11) (VHH, Llama single domain antibody; also called 48(#20); VHCDR3 48(#20); not shown: tags: c-myc tag in periplasmic extract (ELISA, FACS); FLAG and His tags in purified VHH (SPR, infection assays)) VHH: QVQLQESGGGLVQVGGSLRLSCVASGRTPSRYVMGWFRQAPGQEREFVAGIAWSGRAPYADSVKGRFVISRDSAKNTVYLQMNSLKSEDTGVYYCAGGEGAILWTTPGAYNYWGQGTQVTVSS show?
9.15

Bench note: what Kd did VHH 001 (1B02) (VHH, Llama single domain antibody; also called 144(#1); VHCDR3 144(#1); not shown: tags: c-myc tag in periplasmic extract (ELISA, FACS); FLAG and His tags in purified VHH (SPR, infection assays)) VHH: EVQLVESGGGLVQAGGSLSLSCAASGGTLAMYAMSWFRQAPGKDRKFVAAINTSGRYSRYADSVKGRFTISRDNAKNTATLQMNSLEPEDTAVYYCAATDKGNWALAMSYDYWGQGTQVTVSS show?
7.08
